# target: KRAS G12D (Homo sapiens, UniProt P01116, G12D)
# Construct: Human His-tagged KRAS4B (1-169) G12D, G12V and G12C were custom synthesized; 6His (pET-28a(+)-TEV vector) (N); host or cells: E. coli BL21 star (DE3)
# Sequence (P01116 1-169 isoform P01116-2 G12D): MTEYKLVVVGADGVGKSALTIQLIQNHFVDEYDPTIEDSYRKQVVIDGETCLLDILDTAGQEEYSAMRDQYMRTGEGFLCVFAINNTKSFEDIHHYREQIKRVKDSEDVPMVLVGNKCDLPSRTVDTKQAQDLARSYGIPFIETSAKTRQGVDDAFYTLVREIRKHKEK
# assay.notes: Isothermal titration calorimetry, KRAS G12D
# Assay type: binding
# condition.summary: ITC, NH-GDP-loaded KRAS G12D
observation.type: Kd (nM)
Numbers only, in nM.

Form field: reported Kd of COC(=O)C1C2C3(C)C(=O)C=CC2(OC3=O)C2CCC3(CBr)CC12CC3=O (stereo not shown)
479

---

# System: pancreatic cancer cell lines harboring KRAS G12D, KRAS G12V, KRAS WT, and KRAS G12C
# assay.notes: Cell viability, pancreatic cancer cell lines (summary)
# Assay type: cell-based
# condition.summary: Homo sapiens, read-out: IC50 values, cell viability, range over cell lines
pIC50: −log10 of the molar value.
observation.type: pIC50

Form field: reported pIC50 of COC(=O)C1C2C3(C)C(=O)C=CC2(OC3=O)C2CCC3(CBr)CC12CC3=O (stereo not shown) [KRB-456]
4.82 to 5.30

Origin of the recorded values: paper PMC10754035
